Where do the numbers come from? From patent US6423689B1.

target: N-type Ca2+ channels in IMR-32 cells (Homo sapiens, UniProt Q00975); construct: host or cells: IMR-32 cells, differentiated with dibutyryl cAMP and bromodeoxyuridine; experiment: Inhibition of N-type calcium flux in IMR-32 cells (Indo-1 fluorescence, nitrendipine present); type: cell-based; conditions: 1 μM
Sequence (Q00975 whole entry): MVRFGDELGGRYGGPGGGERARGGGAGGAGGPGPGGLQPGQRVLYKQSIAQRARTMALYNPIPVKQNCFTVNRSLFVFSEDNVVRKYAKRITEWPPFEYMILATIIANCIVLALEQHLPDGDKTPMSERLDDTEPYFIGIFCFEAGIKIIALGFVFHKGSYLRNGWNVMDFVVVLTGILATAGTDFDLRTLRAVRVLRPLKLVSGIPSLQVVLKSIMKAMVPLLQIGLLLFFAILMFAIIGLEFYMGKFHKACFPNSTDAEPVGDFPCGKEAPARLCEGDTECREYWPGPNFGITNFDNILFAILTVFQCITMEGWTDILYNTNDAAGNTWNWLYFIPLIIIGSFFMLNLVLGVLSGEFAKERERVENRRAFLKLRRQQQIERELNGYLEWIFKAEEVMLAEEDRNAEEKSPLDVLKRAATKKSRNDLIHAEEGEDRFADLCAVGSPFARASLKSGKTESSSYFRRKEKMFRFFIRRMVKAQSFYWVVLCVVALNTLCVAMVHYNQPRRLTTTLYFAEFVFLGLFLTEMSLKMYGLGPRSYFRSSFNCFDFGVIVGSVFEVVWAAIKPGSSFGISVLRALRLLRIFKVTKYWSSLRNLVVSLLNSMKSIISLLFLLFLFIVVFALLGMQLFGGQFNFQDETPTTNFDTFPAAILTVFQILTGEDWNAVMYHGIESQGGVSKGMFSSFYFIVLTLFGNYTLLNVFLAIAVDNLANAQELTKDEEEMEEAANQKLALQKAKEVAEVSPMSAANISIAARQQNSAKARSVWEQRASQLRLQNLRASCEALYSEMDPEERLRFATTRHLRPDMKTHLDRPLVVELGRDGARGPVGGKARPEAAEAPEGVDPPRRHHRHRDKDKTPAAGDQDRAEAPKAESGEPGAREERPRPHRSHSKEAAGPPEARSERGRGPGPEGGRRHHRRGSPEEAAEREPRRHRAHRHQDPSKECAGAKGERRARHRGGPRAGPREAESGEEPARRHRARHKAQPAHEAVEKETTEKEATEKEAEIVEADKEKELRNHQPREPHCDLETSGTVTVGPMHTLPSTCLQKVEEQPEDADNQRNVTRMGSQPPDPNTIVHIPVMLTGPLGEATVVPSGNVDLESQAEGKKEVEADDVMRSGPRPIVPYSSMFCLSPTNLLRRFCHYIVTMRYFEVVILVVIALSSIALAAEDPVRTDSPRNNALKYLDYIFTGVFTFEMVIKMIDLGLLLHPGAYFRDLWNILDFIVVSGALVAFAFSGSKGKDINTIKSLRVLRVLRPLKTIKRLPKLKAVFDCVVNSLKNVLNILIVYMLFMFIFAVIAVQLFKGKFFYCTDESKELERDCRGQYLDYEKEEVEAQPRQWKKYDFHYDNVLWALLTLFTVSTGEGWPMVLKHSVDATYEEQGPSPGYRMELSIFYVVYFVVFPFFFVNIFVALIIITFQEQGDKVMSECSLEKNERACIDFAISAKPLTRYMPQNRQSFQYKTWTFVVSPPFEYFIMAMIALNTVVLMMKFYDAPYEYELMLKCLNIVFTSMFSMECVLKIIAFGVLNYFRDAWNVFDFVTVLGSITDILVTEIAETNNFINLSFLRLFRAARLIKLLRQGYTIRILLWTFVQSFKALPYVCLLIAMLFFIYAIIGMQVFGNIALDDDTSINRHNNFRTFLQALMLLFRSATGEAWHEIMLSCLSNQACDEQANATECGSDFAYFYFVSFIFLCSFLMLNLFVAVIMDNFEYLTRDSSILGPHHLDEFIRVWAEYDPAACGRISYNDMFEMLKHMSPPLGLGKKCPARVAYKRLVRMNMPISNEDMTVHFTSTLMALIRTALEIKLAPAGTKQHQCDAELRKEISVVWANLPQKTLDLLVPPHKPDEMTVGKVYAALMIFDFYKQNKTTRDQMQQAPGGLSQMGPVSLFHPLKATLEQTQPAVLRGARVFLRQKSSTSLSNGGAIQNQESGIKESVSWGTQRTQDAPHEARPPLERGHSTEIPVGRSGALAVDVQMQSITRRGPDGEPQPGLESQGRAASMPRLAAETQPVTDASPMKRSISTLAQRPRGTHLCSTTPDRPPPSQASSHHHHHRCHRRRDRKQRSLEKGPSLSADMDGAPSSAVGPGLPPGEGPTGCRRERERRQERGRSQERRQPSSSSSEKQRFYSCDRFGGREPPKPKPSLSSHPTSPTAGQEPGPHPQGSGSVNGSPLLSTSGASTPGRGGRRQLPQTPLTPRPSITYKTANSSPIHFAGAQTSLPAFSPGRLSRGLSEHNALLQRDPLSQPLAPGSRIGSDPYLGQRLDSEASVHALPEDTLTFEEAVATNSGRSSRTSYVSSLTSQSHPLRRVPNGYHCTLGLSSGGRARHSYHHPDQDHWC
Sequence (P54289 25-956 partner limits assumed): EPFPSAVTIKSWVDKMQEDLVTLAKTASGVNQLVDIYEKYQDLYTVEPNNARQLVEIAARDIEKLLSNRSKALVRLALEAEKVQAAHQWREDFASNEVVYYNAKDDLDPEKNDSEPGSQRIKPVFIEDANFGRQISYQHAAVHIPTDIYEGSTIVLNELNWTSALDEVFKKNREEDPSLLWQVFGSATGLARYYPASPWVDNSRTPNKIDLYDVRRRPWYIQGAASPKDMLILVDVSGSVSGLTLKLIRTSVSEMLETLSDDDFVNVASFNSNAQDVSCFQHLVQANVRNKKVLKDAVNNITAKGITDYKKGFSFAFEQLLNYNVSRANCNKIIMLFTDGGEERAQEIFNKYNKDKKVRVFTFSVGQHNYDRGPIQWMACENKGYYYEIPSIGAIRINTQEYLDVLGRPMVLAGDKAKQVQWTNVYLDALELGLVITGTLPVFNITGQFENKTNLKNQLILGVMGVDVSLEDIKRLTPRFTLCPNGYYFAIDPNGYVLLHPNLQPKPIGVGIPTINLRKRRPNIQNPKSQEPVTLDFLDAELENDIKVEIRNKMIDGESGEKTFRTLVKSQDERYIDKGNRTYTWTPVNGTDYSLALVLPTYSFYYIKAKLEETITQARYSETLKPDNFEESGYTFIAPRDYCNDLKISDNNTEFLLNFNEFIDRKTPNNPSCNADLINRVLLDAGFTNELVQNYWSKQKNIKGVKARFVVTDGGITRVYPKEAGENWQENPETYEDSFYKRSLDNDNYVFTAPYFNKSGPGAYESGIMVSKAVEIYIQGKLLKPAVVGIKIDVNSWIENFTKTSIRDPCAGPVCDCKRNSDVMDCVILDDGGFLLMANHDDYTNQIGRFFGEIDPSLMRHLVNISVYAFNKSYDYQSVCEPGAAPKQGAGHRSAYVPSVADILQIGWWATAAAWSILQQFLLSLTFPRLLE
Sequence (P54289 957-1103 partner limits assumed): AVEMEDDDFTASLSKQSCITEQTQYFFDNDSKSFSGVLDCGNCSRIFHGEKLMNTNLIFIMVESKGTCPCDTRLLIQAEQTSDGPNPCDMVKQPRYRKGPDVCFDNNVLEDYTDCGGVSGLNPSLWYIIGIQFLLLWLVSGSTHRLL
Sequence (P54284 whole entry partner): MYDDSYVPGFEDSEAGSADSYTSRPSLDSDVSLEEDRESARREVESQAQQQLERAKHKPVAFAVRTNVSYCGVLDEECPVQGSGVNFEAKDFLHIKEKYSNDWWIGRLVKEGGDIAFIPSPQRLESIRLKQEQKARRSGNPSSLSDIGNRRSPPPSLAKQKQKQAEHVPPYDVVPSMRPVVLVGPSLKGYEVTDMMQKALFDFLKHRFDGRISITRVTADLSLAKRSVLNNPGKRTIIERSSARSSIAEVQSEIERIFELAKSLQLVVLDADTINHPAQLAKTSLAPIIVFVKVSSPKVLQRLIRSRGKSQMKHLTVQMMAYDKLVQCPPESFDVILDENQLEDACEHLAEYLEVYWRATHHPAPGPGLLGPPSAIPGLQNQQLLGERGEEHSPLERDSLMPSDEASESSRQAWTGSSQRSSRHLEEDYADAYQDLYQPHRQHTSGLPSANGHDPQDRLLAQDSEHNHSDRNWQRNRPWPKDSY
Just so you know, the groups by Inhibition of Calcium Flux in IMR-32 Cells % Inhibition at 1 μM go like this: low value: < 20%; medium value: ≥ 20% and < 40%; high value: ≥ 40%

{"compound": "Cc1cccc(C)c1NC(=O)N[C@@H](CC(C)C)C(=O)N[C@@H](Cc1ccc(OCc2ccccc2)cc1)C(=O)OC(C)(C)C (relative stereo) [Example 62]", "system": "N-type Ca2+ channels in IMR-32 cells (Homo sapiens, UniProt Q00975)", "assigned.class": "medium value"}
{"compound": "CC(C)CC(NC(=O)N1CCCCCC1)C(=O)NC(Cc1ccc(OCc2ccccc2)cc1)C(=O)NC(CO)C(O)c1ccccc1 (stereo not drawn) [Example 227]", "system": "N-type Ca2+ channels in IMR-32 cells (Homo sapiens, UniProt Q00975)", "assigned.class": "low value"}
{"compound": "CCCCNC(=S)N[C@@H](CC(C)C)C(=O)N[C@@H](Cc1ccc(OCc2ccccc2)cc1)C(=O)OC(C)(C)C (relative stereo) [Example 49]", "system": "N-type Ca2+ channels in IMR-32 cells (Homo sapiens, UniProt Q00975)", "assigned.class": "high value"}
{"compound": "Cc1ccc(NC(=S)N[C@@H](CC(C)C)C(=O)N[C@@H](Cc2ccc(OCc3ccccc3)cc2)C(=O)OC(C)(C)C)cc1 (relative stereo) [Example 50]", "system": "N-type Ca2+ channels in IMR-32 cells (Homo sapiens, UniProt Q00975)", "assigned.class": "high value"}
{"compound": "C[C@H](NC(=O)N1CCCCCC1)C(=O)N[C@@H](Cc1ccc(OCc2ccccc2)cc1)C(=O)OC(C)(C)C (relative stereo) [Example 7]", "system": "N-type Ca2+ channels in IMR-32 cells (Homo sapiens, UniProt Q00975)", "assigned.class": "high value"}
{"compound": "CC(C)C[C@H](NC(=O)Nc1cc(C(F)(F)F)cc(C(F)(F)F)c1)C(=O)N[C@@H](Cc1ccc(OCc2ccccc2)cc1)C(=O)OC(C)(C)C (relative stereo) [Example 83]", "system": "N-type Ca2+ channels in IMR-32 cells (Homo sapiens, UniProt Q00975)", "assigned.class": "low value"}
{"compound": "CC(C)C[C@H](NC(=O)Nc1ccc([N+](=O)[O-])cc1)C(=O)N[C@@H](Cc1ccc(OCc2ccccc2)cc1)C(=O)OC(C)(C)C (relative stereo) [Example 55]", "system": "N-type Ca2+ channels in IMR-32 cells (Homo sapiens, UniProt Q00975)", "assigned.class": "low value"}
{"compound": "CC(C)C[C@H](NC(=O)Nc1cccc(Cl)c1Cl)C(=O)N[C@@H](Cc1ccc(OCc2ccccc2)cc1)C(=O)OC(C)(C)C (relative stereo) [Example 81]", "system": "N-type Ca2+ channels in IMR-32 cells (Homo sapiens, UniProt Q00975)", "assigned.class": "medium value"}
{"compound": "CC(C)C[C@H](NC(=O)N1CCCCCC1)C(=O)N[C@@H](Cc1ccc(OCc2ccccc2)cc1)C(=O)NCC(C)NC(C)C (stereo partly drawn) [Example 242]", "system": "N-type Ca2+ channels in IMR-32 cells (Homo sapiens, UniProt Q00975)", "assigned.class": "medium value"}
{"compound": "CC(C)C[C@H](NC(=O)N1CCCCCC1)C(=O)N[C@@H](Cc1ccc(N(Cc2ccccc2)Cc2ccccc2)cc1)C(=O)NC(C)(C)C (relative stereo) [Example 133]", "system": "N-type Ca2+ channels in IMR-32 cells (Homo sapiens, UniProt Q00975)", "assigned.class": "high value"}
{"compound": "COc1ccc(NC(=O)N[C@@H](CC(C)C)C(=O)N[C@@H](Cc2ccc(OCc3ccccc3)cc2)C(=O)OC(C)(C)C)cc1 (relative stereo) [Example 68]", "system": "N-type Ca2+ channels in IMR-32 cells (Homo sapiens, UniProt Q00975)", "assigned.class": "medium value"}
{"compound": "CC(C)C[C@H](NC(=O)N1CCCCCC1)C(=O)N[C@@H](Cc1ccc(OCc2ccccc2)cc1)C(=O)NC(CO)CO (relative stereo) [Example 257]", "system": "N-type Ca2+ channels in IMR-32 cells (Homo sapiens, UniProt Q00975)", "assigned.class": "high value"}
